# SUBJECT OF TEST: T1, histidine-tagged human Siglec-7 (NovoProtein) (human, UniProt Q9Y286 19-353)
# T1 construct: Bought protein; also called recombinant human Siglec-7; recombinant Siglec-7; not shown: histidine tag
# METHOD SUMMARY: BLI, antibody captured
ATTRIBUTE MEASURED: koff (s⁻¹)
Please give a number only; it is taken to be in s⁻¹.

Use the examples below as a reference point.
INSERT INTO assay_data (binder, quantity_unit, reading) VALUES
  ('S7AB-H8.13 (antibody, V domains shown) VH: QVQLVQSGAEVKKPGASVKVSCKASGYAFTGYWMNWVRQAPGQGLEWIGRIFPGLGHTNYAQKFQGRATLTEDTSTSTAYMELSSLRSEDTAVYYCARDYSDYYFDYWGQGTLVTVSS VL: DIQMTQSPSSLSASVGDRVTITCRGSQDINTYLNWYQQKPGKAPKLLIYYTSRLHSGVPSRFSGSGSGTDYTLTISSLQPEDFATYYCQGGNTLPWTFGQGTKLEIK', 's⁻¹', 0.000303),
  ('S7AB-H8.1 (antibody, V domains shown) VH: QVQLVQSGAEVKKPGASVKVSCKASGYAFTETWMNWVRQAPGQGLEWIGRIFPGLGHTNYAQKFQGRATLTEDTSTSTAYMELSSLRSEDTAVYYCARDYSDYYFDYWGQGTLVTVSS VL: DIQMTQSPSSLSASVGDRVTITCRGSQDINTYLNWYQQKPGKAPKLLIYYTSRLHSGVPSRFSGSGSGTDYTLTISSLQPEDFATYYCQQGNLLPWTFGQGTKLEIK', 's⁻¹', '7.05e-05'),
  ('S7AB-H8.30 (antibody, V domains shown) VH: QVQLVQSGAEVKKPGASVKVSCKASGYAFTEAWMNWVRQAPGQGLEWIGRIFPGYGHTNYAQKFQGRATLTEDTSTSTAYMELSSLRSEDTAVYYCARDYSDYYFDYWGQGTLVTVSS VL: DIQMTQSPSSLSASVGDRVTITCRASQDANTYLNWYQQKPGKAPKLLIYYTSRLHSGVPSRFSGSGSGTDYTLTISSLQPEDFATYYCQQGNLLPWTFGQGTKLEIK', 's⁻¹', '4.13e-05'),
  ('S7AB-H8.23 (antibody, V domains shown) VH: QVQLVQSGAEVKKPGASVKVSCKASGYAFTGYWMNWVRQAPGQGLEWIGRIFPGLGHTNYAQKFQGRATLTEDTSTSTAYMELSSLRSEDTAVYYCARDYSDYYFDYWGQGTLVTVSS VL: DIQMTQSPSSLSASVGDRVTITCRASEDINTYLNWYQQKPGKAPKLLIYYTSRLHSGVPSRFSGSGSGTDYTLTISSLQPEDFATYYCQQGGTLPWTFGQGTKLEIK', 's⁻¹', '5.53e-05');

Now for a further binder.
Give the measured koff of S7AB-H8.27 (antibody, V domains shown) VH: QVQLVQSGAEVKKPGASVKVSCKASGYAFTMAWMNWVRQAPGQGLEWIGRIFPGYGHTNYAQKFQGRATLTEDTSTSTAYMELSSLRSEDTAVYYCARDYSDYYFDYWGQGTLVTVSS VL: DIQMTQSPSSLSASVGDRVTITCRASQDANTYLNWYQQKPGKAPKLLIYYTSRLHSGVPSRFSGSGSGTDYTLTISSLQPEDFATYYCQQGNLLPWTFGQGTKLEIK . 1.56e-05
